test system: HCT-116; assay: Cytotoxicity against human HCT116 cells by SRB assay; assay type: functional, cell-based
The source made the active and inactive calls. No cut-off for these calls is given here.
OBSERVED PROPERTY: Activity

C[C@H](NC(=O)c1cnc2c(n1)c(=O)n(C)c(=O)n2C)C(=O)Nc1ccccc1C(N)=O : inactive
COC(=O)c1ccccc1NC(=O)[C@H](CC[S+](C)[O-])NC(=O)c1cnc2c(n1)c(=O)n(C)c(=O)n2C (some centres undefined) : inactive
COC(=O)c1ccccc1NC(=O)[C@H](CCSC)NC(=O)c1cnc2c(n1)c(=O)n(C)c(=O)n2C : inactive
COC(=O)c1ccccc1NC(=O)[C@H](CCS(C)(=O)=O)NC(=O)c1cnc2c(n1)c(=O)n(C)c(=O)n2C : inactive

* * *

tested on: A549; assay: Cytotoxicity against human A549 cells by SRB assay; format: functional, cell-based
Activity calls are given as the source filed them. The calls are words filed in the database; no cut-off is given here.
OBSERVED PROPERTY: Activity

COC(=O)c1ccccc1NC(=O)[C@H](CC[S+](C)[O-])NC(=O)c1cnc2c(n1)c(=O)n(C)c(=O)n2C (some centres undefined) : inactive
COC(=O)c1ccccc1NC(=O)[C@H](CCSC)NC(=O)c1cnc2c(n1)c(=O)n(C)c(=O)n2C : inactive
C[C@H](NC(=O)c1cnc2c(n1)c(=O)n(C)c(=O)n2C)C(=O)Nc1ccccc1C(N)=O : inactive
COC(=O)c1ccccc1NC(=O)[C@H](CCS(C)(=O)=O)NC(=O)c1cnc2c(n1)c(=O)n(C)c(=O)n2C : inactive
